System: UO-31 renal
Assay: NCI tumour cell line growth inhibition, 48 h; in the data active means GI50 below about 0.43 µM; inactive means the rest
Bench note: report the call from active, inactive

As a guide, the following entries are already answered.
>  <MOLECULE>
CC(=O)C1=C(O)C=C2Oc3c(C(=O)/C=C/c4cc(Cl)cc(Cl)c4)c(O)c(C)c(O)c3[C@]2(C)C1=O

>  <GROUP>
active

$$$$
>  <MOLECULE>
CC[C@@H](C)/C=C(C)/C=C/C(=O)c1c(O)c(-c2ccc(O)cc2)cn(O)c1=O

>  <GROUP>
active

$$$$
>  <MOLECULE>
O=C(O)C1[O][Sb][O]C(C(=O)O)C1O (configuration not stated)

>  <GROUP>
inactive

$$$$
>  <MOLECULE>
Cc1cn(Cc2ccc(C34CC5CC(CC(C5)C3)C4)c(O)c2)c(=O)[nH]c1=O

>  <GROUP>
inactive

$$$$
>  <MOLECULE>
CCOc1ccn(-c2ccc(F)cc2)c(=O)c1C(=O)Nc1ccc(Oc2ccnc(N)c2Cl)c(F)c1

>  <GROUP>
inactive

$$$$

Query :: Entry N#Cc1cnc(Nc2cc(NC[C@H]3CNCCO3)c(C(F)(F)F)cn2)cn1 : call = ?
Result :: inactive

Query :: How was CO[C@H]1CC(O[C@@H]2/C(C)=C/C[C@@H]3C[C@@H](C[C@]4(CC[C@H](C)[C@@H](C5CCCCC5)O4)O3)OC(=O)[C@@H]3C=C(C)/C(=N/O)[C@H]4OC/C(=C\C=C\[C@@H]2C)[C@]43O)O[C@@H](C)C1O (some centres not stated) classified in this test?
Result :: inactive
